# System: LOC_OS01G14860-cb001;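 also: purified Escherichia coli-expressed rice kinase domain construct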
# test details: thermal shift delta Tm vs DMSO control; higher = stronger stabilization (binding)
# test context: 12.5 µM; protein concentration 2 µM
Structures can show the parent of a compound that is named as a salt.
Listing: thermal shift delta Tm of selected compounds
Value expressed in °C; do not type the unit.

O=C(O)c1ccc(-c2c[nH]c3ncc(-c4ccccc4)cc23)cc1C1CCCC1 ... 5.49
Cn1cc(C2=C(c3ccc(Cl)cc3Cl)C(=O)NC2=O)c2ccccc21 ... 6.48
COc1cc2ncnc(Oc3cccc(NC(=O)Nc4cc(C(C)(C)C(F)(F)F)on4)c3)c2cc1OC ... 0.91
Cc1nc(Nc2ncc(C(=O)Nc3c(C)cccc3Cl)s2)cc(N2CCN(CCO)CC2)n1 ... 0.27
CO[C@@H](C)Cn1c(=O)n(C)c2cnc3ccc(-c4cncc(C(C)(C)O)c4)cc3c21 ... 0.77
COc1cc(OC)cc(-c2cc3cnc(N)nc3nc2NC(=O)NC(C)(C)C)c1 ... 0.48
C[S+]([O-])c1ccc(-c2nc(-c3ccc(F)cc3)c(-c3ccncc3)[nH]2)cc1 (centres undefined) ... 2.49
Cc1c(C(=O)Nc2ccc(Oc3ccnc4[nH]cc(-c5ccccc5)c34)c(F)c2)c(=O)n(-c2ccc(F)cc2)n1C ... 0.67
N=C(N)NC(=N)NCCc1ccccc1 [Phenformin HCl] ... 0.25
Cc1ccccc1-n1c(Cn2nc(-c3cccc(O)c3)c3c(N)ncnc32)nc2cccc(C)c2c1=O ... -0.04

Please tell me: thermal shift delta Tm of COCCOc1cnc2ccn([C@H](C)c3nnc4c(F)cc(-c5cnn(C)c5)cn34)c(=O)c2c1 , system LOC_OS01G14860-cb001?;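 also: purified Escherichia coli-expressed rice kinase domain construct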
0.15

Please tell me: thermal shift delta Tm of N#Cc1ccc(-c2c(-c3ncn[nH]3)sc(N3CCOCC3)c2C#N)c(F)c1 , system LOC_OS01G14860-cb001?;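 also: purified Escherichia coli-expressed rice kinase domain construct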
0.41

Please tell me: thermal shift delta Tm of Cn1c(=O)c(F)c(Nc2ccc(I)cc2F)c2c(=O)n(C[C@@H](O)CO)cnc21 , system LOC_OS01G14860-cb001?;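 also: purified Escherichia coli-expressed rice kinase domain construct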
0.33

Please tell me: thermal shift delta Tm of COc1ccc(COc2ccc(Cc3cnc(N)nc3N)cc2OC)cc1 , system LOC_OS01G14860-cb001?;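 also: purified Escherichia coli-expressed rice kinase domain construct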
0.12

Please tell me: thermal shift delta Tm of O=c1[nH]nc(Sc2ncc([N+](=O)[O-])s2)n1-c1ccc2c(c1)OCCO2 , system LOC_OS01G14860-cb001?;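 also: purified Escherichia coli-expressed rice kinase domain construct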
2.21

Please tell me: thermal shift delta Tm of Oc1ccc(Nc2nc(-c3ccc(Cl)cc3)cs2)cc1 , system LOC_OS01G14860-cb001?;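 also: purified Escherichia coli-expressed rice kinase domain construct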
1.41

Please tell me: thermal shift delta Tm of Cc1cc([C@@H](C)Nc2ccccc2C(=O)O)c2nc(N3CCOCC3)cc(=O)n2c1 , system LOC_OS01G14860-cb001?;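 also: purified Escherichia coli-expressed rice kinase domain construct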
0.56

Please tell me: thermal shift delta Tm of CN(C)CCOc1ccc(-c2nc(-c3ccncc3)c(-c3ccc4c(c3)CC/C4=N\O)[nH]2)cc1 , system LOC_OS01G14860-cb001?;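 also: purified Escherichia coli-expressed rice kinase domain construct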
0.42

Please tell me: thermal shift delta Tm of C=CC(=O)Nc1cc(Nc2nccc(-c3c[nH]c4ccccc34)n2)c(OC)cc1N(C)CCN(C)C , system LOC_OS01G14860-cb001?;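 also: purified Escherichia coli-expressed rice kinase domain construct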
0.37
